molecular target: P. falciparum apicoplast DNA polymerase (Pf-apPOL) (Plasmodium falciparum); experiment: Fluorescence-based high-throughput DNA polymerase assay (molecular beacon), primary screen and dose-response; assay type: biochemical; conditions: DRC-1; 90'; concentration 80
Sequence (Q8ILY1 entry or part of it): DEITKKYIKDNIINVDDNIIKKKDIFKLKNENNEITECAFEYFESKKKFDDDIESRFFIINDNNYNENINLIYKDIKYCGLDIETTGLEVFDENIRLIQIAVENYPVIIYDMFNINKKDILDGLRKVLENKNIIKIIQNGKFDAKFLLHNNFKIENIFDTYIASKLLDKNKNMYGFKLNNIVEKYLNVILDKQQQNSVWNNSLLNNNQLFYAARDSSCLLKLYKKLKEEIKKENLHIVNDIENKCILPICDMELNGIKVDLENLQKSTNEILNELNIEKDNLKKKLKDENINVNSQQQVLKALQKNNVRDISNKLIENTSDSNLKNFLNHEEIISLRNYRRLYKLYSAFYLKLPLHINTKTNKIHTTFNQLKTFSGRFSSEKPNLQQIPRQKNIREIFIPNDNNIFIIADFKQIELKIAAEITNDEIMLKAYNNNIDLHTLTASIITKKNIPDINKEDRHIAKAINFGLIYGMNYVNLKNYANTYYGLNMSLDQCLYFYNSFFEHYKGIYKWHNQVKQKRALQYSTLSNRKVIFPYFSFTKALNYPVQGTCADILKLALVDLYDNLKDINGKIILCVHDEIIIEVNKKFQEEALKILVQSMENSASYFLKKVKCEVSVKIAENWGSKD
Lab note: compare % inhibition Apol 90' against 80%. Equal or greater, write T. Smaller, write F.

molecule	answer.label
Cc1cc(C)cc(-n2nc3c(c2NC(=O)c2ccco2)CSC3)c1	T
O=C(CSc1nc2ccccc2s1)Nc1ncc([N+](=O)[O-])s1	T
O=C1N=C(Nc2cccc(Cl)c2Cl)S/C1=C\c1ccco1 [Molecule 3, O=C1N=C(S/C/1=C\c1ccco1)Nc1cccc(c1Cl)Cl]	F
O=C(Nc1nnc(-c2cccs2)o1)c1ccc([N+](=O)[O-])o1	F
Oc1ccc(N=Nc2ccccc2)c(O)c1	F
COc1ccc(-c2cc(=O)c3cc(O)ccc3o2)cc1OC	T
COc1ccc(-c2c(C(F)(F)F)nn3c(=O)cc(-c4cccc([N+](=O)[O-])c4)[nH]c23)cc1	T
O=C(CSc1nnc(-c2ccncc2)[nH]1)c1ccc(O)c(O)c1	T
O=C(O)c1ccc(-c2nc3cc(-c4ccc5nc(-c6ccc(C(=O)O)cc6)[nH]c5c4)ccc3[nH]2)cc1	F
Cc1ccc2c(C(=O)NCCc3cccnc3)cc(NC(=O)C(C)C)cc2n1	T
COc1cccc(C(=O)N2CCc3c(nc4cc(-c5ccccc5)[nH]n4c3=O)C2)c1OC	T
NS(=O)(=O)c1ccc(NC(=O)c2ccc(N3C(=O)CCC3=O)cc2)cc1	T
O=C1CCCC2=C1C(c1ccccn1)C1=C(CCCC1=O)O2	F
CC(=O)c1cc2c(N)c(/C(N)=N/C#N)sc2nc1C	F
CCCCc1ccc(NC(=O)CSc2nc(O)c(C#N)c(C3CCCCC3)n2)c(C)c1	T
COc1ccc(-c2n[nH]cc2Oc2ccc(Cl)cc2)c(O)c1	T
Cc1cccc(-c2nnc3ccc(NS(=O)(=O)c4ccc(C)c(C)c4)nn23)c1	T
Cc1cc(C)c(O)c(/N=C/c2cc([N+](=O)[O-])cc(Br)c2O)c1	T
Cc1ccc(CCNC(=O)c2cnn3c(O)c(Cc4ccccc4F)c(C)nc23)cc1	T
COc1ccc(NC(=O)Cn2ccc3c(=O)[nH]ccc32)cc1 [Molecule 13, COc1ccc(cc1)NC(=O)Cn1ccc2c1cc[nH]c2=O]	T
CC1=NNC(=O)C1Oc1ccc(Cl)cc1Cl (centres unmarked)	F
